species on record: Rattus norvegicus; assay: DrugMatrix - Regimen: Daily Repeat; format: toxicity, organism-based, Sprague-Dawley; parameters: regimen Daily Repeat, gender Male, age 6-8 weeks; conditions: in vivo, po, 0 mg/kg, 72 h, tissue Plasma, route oral GAVAGE, dose level Control, time 3 day, […]
endpointLabel: LIPASE (u/L)
One number for each entry, in u/L.

molecule	LIPASE, u/L
OCCN1CCN(CCCN2c3ccccc3Sc3ccc(C(F)(F)F)cc32)CC1 [FLUPHENAZINE]	10
CCn1cc(C(=O)O)c(=O)c2cc(F)c(N3CCNCC3)nc21 [ENOXACIN]	11.67
CC[C@H](C)C(=O)O[C@H]1C[C@@H](C)C=C2C=C[C@H](C)[C@H](CC[C@@H]3C[C@@H](O)CC(=O)O3)[C@H]21 [LOVASTATIN]	11.33
C#C[C@]1(O)CC[C@H]2[C@@H]3CCc4cc(O)ccc4[C@H]3CC[C@@]21C [ETHINYL ESTRADIOL]	11.67
COc1ncnc(NS(=O)(=O)c2ccc(N)cc2)c1OC [SULFADOXINE]	11.83

Report LIPASE for every entry below.
1. CC[C@H](C)C(=O)O[C@H]1C[C@H](O)C=C2C=C[C@H](C)[C@H](CC[C@@H](O)C[C@@H](O)CC(=O)O)[C@H]21 [PRAVASTATIN]
2. CN(CCOc1ccc(CC2SC(=O)NC2=O)cc1)c1ccccn1 (stereo unspecified) [ROSIGLITAZONE]
3. CC(C)Cc1ccc(CC(=O)O)cc1 [IBUFENAC]
4. NC[C@@H]1O[C@H](O[C@H]2[C@@H](O)[C@H](O[C@@H]3[C@@H](O)[C@H](N)C[C@H](N)[C@H]3O[C@H]3O[C@H](CN)[C@@H](O)[C@H](O)[C@H]3N)O[C@@H]2CO)[C@H](N)[C@@H](O)[C@@H]1O [FRAMYCETIN]
5. CC(=O)Nc1nnc(S(N)(=O)=O)s1 [ACETAZOLAMIDE]

A.
[16.67, 16.67, 10.17, 9.83, 11.83]

Q. Please report LIPASE for the following molecule: CC(CCc1ccc(O)cc1)NCCc1ccc(O)c(O)c1 (stereo unspecified) [DOBUTAMINE]
A. 13.33

###

Consider the following compounds; for each one, report its CHOLESTEROL.
species: Rattus norvegicus; assay: DrugMatrix - Regimen: Daily Repeat; format: toxicity, organism-based, Sprague-Dawley; set-up: regimen Daily Repeat, gender Male, age 6-8 weeks; conditions: in vivo, po, 100 mg/kg, 72 h, tissue Plasma, route oral GAVAGE, dose level Low, time 3 day, vehicle .5 % CMC
Numbers only, in mg/dL.

Report CHOLESTEROL for every entry below.
1. CC=Cc1ccc(O)c(OC)c1
2. CC[C@]1(O)CC[C@H]2[C@@H]3CCC4=CCCC[C@@H]4[C@H]3CC[C@@]21C
3. C#C[C@]1(O)CC[C@H]2[C@@H]3CCC4=Cc5oncc5C[C@]4(C)[C@H]3CC[C@@]21C
4. Nc1nc2c(c(=O)[nH]1)N(C=O)C(CNc1ccc(C(=O)N[C@@H](CCC(=O)O)C(=O)O)cc1)CN2 (some centres undefined)

A.
1. 66.67
2. 51
3. 55
4. 67

###

organism: Rattus norvegicus; assay: DrugMatrix - Regimen: Daily Repeat; format: toxicity, organism-based, Sprague-Dawley; design: regimen Daily Repeat, gender Male, age 6-8 weeks; conditions: in vivo, po, 0 mg/kg, 120 h, tissue Blood, route oral GAVAGE, dose level Control, time 5 day, vehicle .5 % CMC
Consider the following compounds; for each one, report its MEAN CORPUSCULAR HEMOGLOBIN.
Give bare numbers, in pg.

In [3]: df
Out[3]:
                                   compound  reading
0     CCCCC1C(=O)N(c2ccccc2)N(c2ccccc2)C1=O    24.78
1   COc1ccc(/C=C/C(=O)Nc2ccccc2C(=O)O)cc1OC    23.22
2  CC[C@]1(O)CC[C@H]2[C@@H]3CCC4=CCCC[C@@H]4[C@H]3CC[C@@]21C    20.44
3  COc1ccccc1OCC(O)COC(N)=O (configuration not stated)    23.95
4  CC(C)(Sc1cc(C(C)(C)C)c(O)c(C(C)(C)C)c1)Sc1cc(C(C)(C)C)c(O)c(C(C)(C)C)c1    23.22
5      C=C(CC)C(=O)c1ccc(OCC(=O)O)c(Cl)c1Cl    23.57

Q. Please report MEAN CORPUSCULAR HEMOGLOBIN for the following compound: Cc1cnc(C(=O)NCCc2ccc(S(=O)(=O)NC(=O)NC3CCCCC3)cc2)cn1 [GLIPIZIDE]
A. 25.68

###

species on record: Rattus norvegicus; test: DrugMatrix - Regimen: Daily Repeat; format: toxicity, organism-based, Sprague-Dawley; parameters: regimen Daily Repeat, gender Male, age 6-8 weeks; details: in vivo, po, 15 mg/kg, […], tissue Blood, route oral GAVAGE, dose level High, time 14 day
endpointLabel: ABSOLUTE MONOCYTE
Respond with a number, then the unit of measure.

Q. Please report ABSOLUTE MONOCYTE for the following compound: CC(CCc1ccc(O)cc1)NCCc1ccc(O)c(O)c1 (stereo unspecified) [DOBUTAMINE]
A. 200 cells/µL

###

organism: Rattus norvegicus; experiment: DrugMatrix - Regimen: Daily Repeat; format: toxicity, organism-based, Sprague-Dawley; design: regimen Daily Repeat, gender Male, age 6-8 weeks; conditions: in vivo, po, 0 mg/kg, 72 h, tissue Plasma, route oral GAVAGE, dose level Control, time 3 day, vehicle .5 % CMC
Labelling: LACTATE DEHYDROGENASE reported below 400 u/L becomes 1; at or above becomes 0.

compound	label
CC(=O)O[C@]1(C(C)=O)CC[C@H]2[C@@H]3C=C(Cl)C4=CC(=O)[C@@H]5C[C@@H]5[C@]4(C)[C@H]3CC[C@@]21C [CYPROTERONE ACETATE]	1
Nc1cccc(Cl)c1	1

Q. Say whether its LACTATE DEHYDROGENASE is strictly beneath 400 u/L. Entry: "CO[C@H]1C[C@@H]2CC[C@@H](C)[C@@](O)(O2)C(=O)C(=O)N2CCCC[C@H]2C(=O)O[C@H]([C@H](C)C[C@@H]2CC[C@@H](O)[C@H](OC)C2)CC(=O)[C@H](C)/C=C(\C)[C@@H](O)[C@@H](OC)C(=O)[C@H](C)C[C@H](C)/C=C/C=C/C=C/1C"
A. 0

Q. Say whether its LACTATE DEHYDROGENASE is strictly beneath 400 u/L. Entry: "CN1C(=O)CN=C(c2ccccc2)c2cc(Cl)ccc21"
A. 1

Q. Say whether its LACTATE DEHYDROGENASE is strictly beneath 400 u/L. Entry: CC(C(=O)O)c1ccc(-c2ccccc2)c(F)c1 (stereo not drawn)
A. 1

Q. Say whether its LACTATE DEHYDROGENASE is strictly beneath 400 u/L. Entry: "COc1ccc(/C=C/C(=O)Nc2ccccc2C(=O)O)cc1OC"
A. 1

Q. Say whether its LACTATE DEHYDROGENASE is strictly beneath 400 u/L. Entry: COc1ccccc1OCC(O)COC(N)=O (stereo not drawn)
A. 0

Q. Say whether its LACTATE DEHYDROGENASE is strictly beneath 400 u/L. Entry: "CC(C)(Sc1cc(C(C)(C)C)c(O)c(C(C)(C)C)c1)Sc1cc(C(C)(C)C)c(O)c(C(C)(C)C)c1"
A. 1

Q. Say whether its LACTATE DEHYDROGENASE is strictly beneath 400 u/L. Entry: "CCOC(=O)[C@H](CCc1ccccc1)N[C@@H](C)C(=O)N1Cc2ccccc2C[C@H]1C(=O)O"
A. 1

Q. Say whether its LACTATE DEHYDROGENASE is strictly beneath 400 u/L. Entry: "CCCCC1C(=O)N(c2ccccc2)N(c2ccccc2)C1=O"
A. 1

Q. Say whether its LACTATE DEHYDROGENASE is strictly beneath 400 u/L. Entry: Cc1cnc(C(=O)NCCc2ccc(S(=O)(=O)NC(=O)NC3CCCCC3)cc2)cn1 [GLIPIZIDE]
A. 1

Q. Say whether its LACTATE DEHYDROGENASE is strictly beneath 400 u/L. Entry: "C[C@@H](O)[C@H]1C(=O)N2C(C(=O)O)=C(S[C@@H]3CN[C@H](C(=O)N(C)C)C3)[C@H](C)[C@H]12"
A. 1

Q. Say whether its LACTATE DEHYDROGENASE is strictly beneath 400 u/L. Entry: "C[C@@H]1CC[C@H]2[C@@H](C)C(=O)O[C@@H]3O[C@@]4(C)CC[C@@H]1[C@]32OO4"
A. 0

###

species: Rattus norvegicus; assay: DrugMatrix - Regimen: Daily Repeat; assay type: toxicity, organism-based, Sprague-Dawley; set-up: regimen Daily Repeat, gender Male, age 6-8 weeks; settings: in vivo, po, 15 mg/kg, 120 h, tissue Blood, route oral GAVAGE, dose level High, time 5 day, […]
endpointLabel: ABSOLUTE LYMPHOCYTE (cells/µL)
Numbers only, in cells/µL.

Q. Please report ABSOLUTE LYMPHOCYTE for the following compound: CC(CCc1ccc(O)cc1)NCCc1ccc(O)c(O)c1 (stereo unspecified)
A. 7530
